Target: Peroxisome proliferator-activated receptor alpha (Homo sapiens) (UniProt Q07869)
Sequence (Q07869 whole entry, looked up): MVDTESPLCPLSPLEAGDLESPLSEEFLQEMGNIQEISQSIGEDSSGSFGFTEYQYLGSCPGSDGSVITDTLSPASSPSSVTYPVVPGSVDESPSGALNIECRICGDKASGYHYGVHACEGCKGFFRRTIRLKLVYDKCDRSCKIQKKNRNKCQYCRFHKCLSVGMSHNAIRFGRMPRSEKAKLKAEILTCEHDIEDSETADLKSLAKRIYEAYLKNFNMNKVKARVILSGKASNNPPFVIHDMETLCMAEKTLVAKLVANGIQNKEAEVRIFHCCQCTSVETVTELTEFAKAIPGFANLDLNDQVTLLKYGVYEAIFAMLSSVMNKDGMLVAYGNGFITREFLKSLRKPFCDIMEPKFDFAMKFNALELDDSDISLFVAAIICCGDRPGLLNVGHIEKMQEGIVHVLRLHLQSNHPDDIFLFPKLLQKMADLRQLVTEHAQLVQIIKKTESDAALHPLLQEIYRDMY
Experiment: qHTS assay for small molecule agonists of the peroxisome proliferator-activated receptor alpha (PPARalpha) signaling pathway (AID 651778); further: % of control where 0% means no effect
Conditions: PathHunter PPARalpha complementation, chemiluminescence, 6 h; stronger effect = higher value
The source made the active and inactive calls. The call rests on the fitted dose curve; in most records, active means well fitted activation curve with a large enough effect; inconclusive means small, poorly fitted or top-dose-only effect; inactive means flat fitted curve, though single readings scatter.
We begin with a simple list: items and their reported max response.

Below, 4 molecules whose answers are already recorded.
CCC(=O)O[C@H]1CC[C@H]2[C@@H]3CCC4=CC(=O)CC[C@]4(C)[C@H]3CC[C@]12C | -1.43% (inactive)
CCCCCCCCC(=O)NCc1ccc(O)c(OC)c1 | 1.45% (inactive)
COP(=O)(OC)C(O)C(Cl)(Cl)Cl (stereo unspecified) | -2.06% (inactive)
O=c1n(Cl)c(=O)n(Cl)c(=O)n1Cl | -0.0703% (inactive)

Answer with reported max response of CCCCCCCCCCCC[N+](C)(C)CCOc1ccccc1 -0.963% (inactive)

Look up and state reported max response for CC[n+]1c(-c2ccccc2)c2cc(N)ccc2c2ccc(N)cc21 -2.33% (inactive)

* * *

Details: Ebola virus entry assay, green fluorescence channel
Results with a measured potency or affinity are listed apart.
// bucketize efficacy: L: < 10%; M: ≥ 10% and < 30%; H: ≥ 30%

The entry to classify is Oc1c(Cl)cc(Cl)c(Cl)c1Cc1c(O)c(Cl)cc(Cl)c1Cl ; which class holds it? M

Which class is correct for the following compound? CN(C(=O)c1c(O)c2ccccc2n(C)c1=O)c1ccccc1 L

Pick a category. Item: CCOC(=O)C(c1c(O)c2ccccc2oc1=O)c1c(O)c2ccccc2oc1=O M

Which efficacy category applies to CC(=O)O[C@H]1CC[C@@]2(C)C(=CC[C@@H]3[C@@H]2CC[C@]2(C)C(C(C)=O)=CC[C@@H]32)C1 here? L

Using the reported efficacy, which band applies to CCOC(=O)N1CCC(Nc2ccc(Cl)cc2N)CC1 ? H

In plain terms, what class is CCC(=O)O[C@]1(C(=O)SCF)[C@H](C)C[C@H]2[C@@H]3C[C@H](F)C4=CC(=O)C=C[C@]4(C)[C@@]3(F)[C@@H](O)C[C@@]21C ? H

For C[C@]12CCC(=O)C=C1CC[C@@H]1[C@@H]2C(=O)C[C@@]2(C)[C@H]1CC[C@]2(O)C(=O)CO , which efficacy bin applies? M

Class (by measured efficacy) for CC(=C(CCOC(=O)C(C)C)SSC(CCOC(=O)C(C)C)=C(C)N(C=O)Cc1cnc(C)nc1N)N(C=O)Cc1cnc(C)nc1N L

Category lookup for the compound C=CCN1CC[C@]23CCCC[C@H]2[C@H]1Cc1ccc(O)cc13 H

# bin lookup: classify NS(=O)(=O)c1cc2c(cc1Cl)NCNS2(=O)=O by its efficacy M

* * *

Test: qHTS of pediatric cancer cell lines to identify multiple opportunities for drug repurposing: Primary screen for OHS-50 cells (AID 1347103); further: nearly all actives have a fitted effect of over 40% in size
Conditions: OHS-50 osteosarcoma viability, CellTiter-Glo luminescence, 48 h; series mostly up to 57.3 µM
Inconclusive results are not listed. Activity calls are given as the source filed them. Calls follow the shape of the dose curve; as a rule, active = well fitted cell-killing curve with a large enough effect; inconclusive = small, poorly fitted or top-dose-only effect; inactive = no such curve, though single readings can be large or run the other way.
One label from this list, please: true for active, false for inactive

Answered cases to consult:
CC(C)[N+](C)(CCC(C(N)=O)(c1ccccc1)c1ccccc1)C(C)C | false
NC(=O)OCCCc1ccccc1 | false
CC(CC(C#N)(c1ccccc1)c1ccccc1)N(C)C (stereo not given) | true

Called result for CCN(Cc1ccc(Cl)nc1)/C(=C/[N+](=O)[O-])NC false

Write down the call the test reported for this compound. Item: O=C1NCN(c2ccccc2)C12CCN(CCCOc1ccc(F)cc1)CC2 true

For this compound, state the assay outcome: CCC1(c2ccccc2)CCC(=O)NC1=O (stereo not given) false

Name the outcome recorded for C[C@@H]1CC[C@H]2[C@@H](C)C(=O)O[C@@H]3O[C@@]4(C)CC[C@@H]1[C@]32OO4 in the assay. false

Fill in: this test's call for Oc1ccc2[nH]cc(CCCCN3CC=C(c4ccccc4)CC3)c2c1 is ___ true

* * *

Listed below: activity change, negative = inhibition values for each entry.
Assay: Primary qHTS to identify inhibitors of SARS-CoV-2 cell entry (AID 1645846); further: nearly all actives have a fitted effect of over 45% in size
Conditions: SARS-CoV-2 pseudovirus cell entry assay, luminescence; at 57.1 µM (top of the series) unless noted
Records with an inconclusive call do not appear.
Report the figure in % without appending any unit label.

CCCC(=O)OC[C@@H](OC(=O)CCC)[C@@H](OC(=O)CCC)[C@H](Cn1c2nc(=O)[nH]c(=O)c-2nc2cc(C)c(C)cc21)OC(=O)CCC | -16.8
CN(Cc1ccc(C(C)(C)C)cc1)Cc1cccc2ccccc12 | 2.25
O=C(O)CCC(=O)OC[C@@H](NC(=O)C(Cl)Cl)[C@H](O)c1ccc([N+](=O)[O-])cc1 | -2.41

Return the recorded activity change, negative = inhibition value; entry: CCC(=O)C(CCN(C)C)(c1ccccc1)c1ccccc1 -43.2

Could you please provide reported activity change, negative = inhibition for Cc1c(-c2ccccc2)oc2c(C(=O)OCCN3CCCCC3)cccc2c1=O ? Thanks! -5.61

Assign activity change, negative = inhibition to the following record: Cc1ccc(O)cc1 -24.6

Supply activity change, negative = inhibition value. Item: CCOc1ccccc1O[C@H](c1ccccc1)[C@H]1CNCCO1 0.393

Retrieve activity change, negative = inhibition measured for C#C[C@]1(OC(C)=O)CC[C@H]2[C@@H]3CCC4=C/C(=N/O)CC[C@@H]4[C@H]3CC[C@@]21CC and print it. -15.4

* * *

Test: qHTS profiling for inhibitors of Plasmodium falciparum proliferation (AID 504749); further: nearly all actives have a fitted effect of over 60% in size; further: potency means the concentration at half of the fitted maximal effect
Conditions: P. falciparum in erythrocytes, SYBR Green DNA, 72 h; parasite line B
Procedure: NIH National Institute of Allergy and Infectious Diseases [NIAID] NIH Chemical Genomics Center [NCGC] […] Because mature erythrocytes lack DNA, only Plasmodium-derived DNA is detected. NCGC Assay Protocol Summary: The SYBR Green viability assay was adapted from a method described previously (Plouffe et al., 2008). […] The following morning, fluorescence intensity at 485(14) nm excitation and 535(25) nm emission wavelengths was measured on an EnVision (Perkin Elmer) plate reader. […]
Records with an inconclusive call do not appear. Activity calls are given as the source filed them. Calls come from the whole dose curve; as a rule, active = well fitted inhibition curve with a large enough effect; inconclusive = small, poorly fitted or top-dose-only effect; inactive = flat fitted curve, though single readings scatter.
Outcome measure: Potency

CCCCCCCCCCCC[N+](C)(C)CCOc1ccccc1 | 5.01 µM (active)
N#Cc1nn(-c2c(Cl)cc(C(F)(F)F)cc2Cl)c(N)c1S(=O)C(F)(F)F (stereo not given) | 8.91 µM (active)
O=C(CCCN1CCC(n2c(=O)[nH]c3ccccc32)CC1)c1ccc(F)cc1 | 3.16 µM (active)
C=CCOC(Cn1ccnc1)c1ccc(Cl)cc1Cl (stereo not given) | 10 µM (active)

Given the compound CC(C)(O)C(Cl)(Cl)Cl , write its reported Potency. 12.6 µM (active)

* * *

Conditions: Ebola virus entry assay, blue channel fluorescence
Active and inactive are the calls of the source. No rule for the calls is given here.
Write down the outcome that applies. Available outcomes: active, inactive

Per the records of this test, what outcome belongs to c1cc(CN2CCCCC2)cc(OCCCNc2nc3ccccc3s2)c1 ? active

* * *

Test: NS1 protein of Zika virus - qHTS assay to identify small molecule inhibitors in human HEK 293 cells (AID 1347053); further: nearly all actives have a fitted effect of over 55% in size
Conditions: HEK293 ZIKV MR766 infection, NS1 TR-FRET, 24 h; series mostly up to 46.1 µM
Inconclusive results are not listed. Active and inactive are the calls of the source. Calls come from the whole dose curve; as a rule, active = well fitted inhibition curve with a large enough effect; inconclusive = small, poorly fitted or top-dose-only effect; inactive = no such curve, though single readings can be large or run the other way.
Permitted responses: yes = active, no = inactive

Illustrative cases are given below, each with its answer.
c1ccc2c(c1)Sc1ccccc1N2CC1CN2CCC1CC2 (stereo not drawn) | yes
c1ccc2nc(N3CCNCC3)ccc2c1 | no

Consider now this further compound.
Name the outcome recorded for C[C@H]1C(=O)O[C@@H]2CCN3CC=C(COC(=O)[C@](C)(O)[C@]1(C)O)[C@H]23 in the assay. no

* * *

Tested on: CP215
Experiment: qHTS profiling for inhibitors of Plasmodium falciparum proliferation (AID 504749); further: nearly all actives have a fitted effect of over 60% in size
Conditions: P. falciparum in erythrocytes, SYBR Green DNA, 72 h; series mostly up to 28.7 µM
Results filed as inconclusive are left out. Calls of active or inactive are those of the source. Calls come from the whole dose curve; as a rule, active = well fitted inhibition curve with a large enough effect; inconclusive = small, poorly fitted or top-dose-only effect; inactive = flat fitted curve, though single readings scatter.
Hi there, use one of these labels in your reply, thanks! 1.0 (active), 0.0 (inactive)

CCC1(CC)C(=O)NC(=O)NC1=O | 0.0
Cc1ccc(N=CN(C)C=Nc2ccc(C)cc2C)c(C)c1 | 0.0
CC(Cc1ccccc1)NCc1ccccc1Cl (stereo unspecified) | 0.0
O=C1NCN(c2ccccc2)C12CCN(CCCOc1ccc(F)cc1)CC2 | 0.0
CCC(=O)O[C@H]1CC[C@H]2[C@@H]3CCC4=CC(=O)CC[C@]4(C)[C@H]3CC[C@]12C | 0.0

Moving on to the next molecule.
Would you mind telling me which call this test gave CC(C)(O)C(Cl)(Cl)Cl ? 1.0

* * *

Experiment: Primary qHTS for inhibitors of MERS-S pseudo-typed particle cell entry (AID 1479149); further: nearly all actives have a fitted effect of over 60% in size
Conditions: MERS-S pseudotyped particle entry, luciferase; series mostly up to 57.1 µM
Inconclusive results are not listed. Activity calls are given as the source filed them. Calls come from the whole dose curve.
Outcome measure: outcome

Use the examples below as a reference point.
O=C(CCCCCCCCC#CI)Oc1ccccc1 | inactive
COc1ccc(CCN(C)CCCC(C#N)(c2cc(OC)c(OC)c(OC)c2)C(C)C)cc1OC (stereo unspecified) | inactive
COc1ccc(CN(CCN(C)C)c2ncccn2)cc1 | inactive
CCc1oc2ccccc2c1C(=O)c1cc(Br)c(O)c(Br)c1 | inactive
O=C(O)CCc1nc(-c2ccccc2)c(-c2ccccc2)o1 | inactive

Using the record for O=c1cc(CO)occ1O , state its measured outcome. inactive

Please report outcome for the following molecule: COCCc1ccc(OCC(O)CNC(C)C)cc1 (stereo unspecified) inactive

For Cc1ccc(=O)n(-c2ccccc2)c1 , write its outcome. inactive

Determine from records and report outcome for CCCC[N+]1(C)[C@@H]2CC(OC(=O)[C@H](CO)c3ccccc3)C[C@H]1[C@@H]1O[C@@H]12 (stereo partly specified) inactive

Name the recorded outcome of the molecule listed here: Nc1nc2ncc(CNc3ccc(C(=O)N[C@@H](CCC(=O)O)C(=O)O)cc3)nc2c(=O)[nH]1 inactive

Hello, please tell me recorded outcome for this one: OCC(CO)N[C@H]1C[C@](O)(CO)[C@@H](O)[C@H](O)[C@H]1O inactive
